Source listed as paper PMC7753147.

Tested on: gephE
Experiment: µSPOT peptide microarray binding assay with recombinant gephE
Settings: µSPOT peptide microarray, GlyRβ full positional scan, recombinant gephE; intensity normalised to wild-type sequence DLRSNDFSIVGSLPR (=1)
assay endpoint: gephE Binding Intensity [norm.] (norm.)

>>> result_value("DLRSNDFRIVGSLPR [GlyRβ_Full_Positional_Scan_152, GlyR β 414-428 variant S421R]")
0.8
>>> result_value("DNRSNDFSIVGSLPR [GlyRβ_Full_Positional_Scan_039]")
0.96
>>> result_value("DLRSNDCSIVGSLPR [GlyRβ_Full_Positional_Scan_137, GlyR β 414-428 variant F420C]")
0.67

[1] VLRSNDFSIVGSLPR [GlyRβ_Full_Positional_Scan_006]
[2] DLRSNDFSINGSLPR [GlyRβ_Full_Positional_Scan_199, GlyR β 414-428 variant V423N]
In: Sort 1 and 2 by gephE Binding Intensity [norm.] descending and give the first. Write the label of whichever entry you select.
Out: 1
(1: 1.05 norm., 2: 0.4 norm.)

[A] NLRSNDFSIVGSLPR [GlyRβ_Full_Positional_Scan_019]
[B] DLRSNDMSIVGSLPR [GlyRβ_Full_Positional_Scan_138, GlyR β 414-428 variant F420M]
In: Compare reported gephE Binding Intensity [norm.] values for A and B . Which is lower? Write the label of whichever entry you select.
Out: B
(B: 0.43 norm., A: 1.15 norm.)

---

Test system: gephE
Test: µSPOT peptide microarray binding assay with recombinant gephE
Details: overlapping GABAAR α3 peptide library on µSPOT array; 20 nM gephE; normalized to most prominent spot; n = 2 array-internal duplicate
assay endpoint: gephE Binding Intensity [norm.] (norm.)

>>> result_value("EFSTISKSAAAPSASSTPTA [GABAAR α3 residues 411-430, µSpot library]")
0.028
>>> result_value("TISKSAAAPSASSTPTAIAS [GABAAR α3 residues 414-433, µSpot library]")
0.024
>>> result_value("KDTEFSTISKSAAAPSASST [GABAAR α3 residues 408-427, µSpot library]")
0.020
>>> result_value("NLAKDTEFSTISKSAAAPSA [GABAAR α3 residues 405-424, µSpot library]")
0.029
>>> result_value("AAPSASSTPTAIASPKATYV [GABAAR α3 residues 420-439, µSpot library]")
0.038
>>> result_value("TPAAPTKKNTTFNIVGTTYP [GABAAR α3 residues 384-403, µSpot library]")
0.948

[a] SWAWEGKKVPEALEMKKKTP
[b] PEALEMKKKTPAAPTKKNTT [GABAAR α3 residues 375-394, µSpot library]
[c] APTKKNTTFNIVGTTYPINL [GABAAR α3 residues 387-406, µSpot library]
[d] ASPKATYVQDSPAETKTYNS [GABAAR α3 residues 432-451, µSpot library]
[e] KKNTTFNIVGTTYPINLAKD [GABAAR α3 residues 390-409, µSpot library]
In: Task for the reader: rank each entry by its gephE Binding Intensity [norm.], from the minimum upward. List the labels, following the order given in the request.
Out: d, b, a, e, c

---

System: gephE
Assay: µSPOT peptide microarray binding assay with recombinant gephE
Settings: µSPOT peptide microarray, GlyRβ full positional scan, recombinant gephE; intensity normalised to wild-type sequence DLRSNDFSIVGSLPR (=1)
assay endpoint: gephE Binding Intensity [norm.] (norm.)

Example sequences with recorded gephE Binding Intensity [norm.]:
>>> result_value("DLRSNDFSIVFSLPR [GlyRβ_Full_Positional_Scan_207, GlyR β 414-428 variant G424F]")
0.43
>>> result_value("DLRSNDFCIVGSLPR [GlyRβ_Full_Positional_Scan_157, GlyR β 414-428 variant S421C]")
0.66
>>> result_value("DLRSNDFSISGSLPR [GlyRβ_Full_Positional_Scan_195, GlyR β 414-428 variant V423S]")
0.41
>>> result_value("DLRSNDFYIVGSLPR [GlyRβ_Full_Positional_Scan_149, GlyR β 414-428 variant S421Y]")
0.7

[A] DHRSNDFSIVGSLPR [GlyRβ_Full_Positional_Scan_033]
[B] DLRSNDFEIVGSLPR [GlyRβ_Full_Positional_Scan_151, GlyR β 414-428 variant S421E]
In: Compare reported gephE Binding Intensity [norm.] values for A and B . Which is lower? Write the label of whichever entry you select.
Out: B

---

Test system: FL-geph
Experiment: µSPOT peptide microarray binding assay with full-length geph
Details: µSPOT peptide microarray, GlyRβ full positional scan, intensity normalised to wild-type sequence DLRSNDFSIVGSLPR (=1)
assay endpoint: Fl-geph Binding Intensity [norm.] (norm.)

>>> result_value("DLRSNDFSIKGSLPR [GlyRβ_Full_Positional_Scan_194, GlyR β 414-428 variant V423K]")
0.63
>>> result_value("DCRSNDFSIVGSLPR [GlyRβ_Full_Positional_Scan_037]")
0.9

[A] DARSNDFSIVGSLPR [GlyRβ_Full_Positional_Scan_021]
[B] DLRSNDFSRVGSLPR [GlyRβ_Full_Positional_Scan_172, GlyR β 414-428 variant I422R]
[C] DLRSNDFSDVGSLPR [GlyRβ_Full_Positional_Scan_170, GlyR β 414-428 variant I422D]
In: Task for the reader: rank each entry by its Fl-geph Binding Intensity [norm.], from the minimum upward. List the labels, following the order given in the request.
Out: C, B, A

---

Test system: gephE
Experiment: µSPOT peptide microarray binding assay with recombinant gephE
Details: µSPOT peptide microarray, GlyRβ full positional scan, recombinant gephE; intensity normalised to wild-type sequence DLRSNDFSIVGSLPR (=1)
assay endpoint: gephE Binding Intensity [norm.] (norm.)

>>> result_value("DLRSNDFPIVGSLPR [GlyRβ_Full_Positional_Scan_145, GlyR β 414-428 variant S421P]")
0.48

[A] DARSNDFSIVGSLPR [GlyRβ_Full_Positional_Scan_021]
[B] DLRSNDFSIRGSLPR [GlyRβ_Full_Positional_Scan_192, GlyR β 414-428 variant V423R]
In: Sort A and B by gephE Binding Intensity [norm.] descending and give the first. Write the label of whichever entry you select.
Out: A
(A: 1.01 norm., B: 0.6 norm.)

[P] FLRSNDFSIVGSLPR [GlyRβ_Full_Positional_Scan_007]
[Q] DLRSNDFSHVGSLPR [GlyRβ_Full_Positional_Scan_173, GlyR β 414-428 variant I422H]
[R] DLRSNDFSNVGSLPR [GlyRβ_Full_Positional_Scan_179, GlyR β 414-428 variant I422N]
In: Output the entries ranked by gephE Binding Intensity [norm.] from maximum down to minimum. List the labels, following the order given in the request.
Out: P, R, Q
(P: 0.96 norm., R: 0.6 norm., Q: 0.41 norm.)

[I] DLRSNIFSIVGSLPR [GlyRβ_Full_Positional_Scan_103]
[II] DLRSNDDSIVGSLPR [GlyRβ_Full_Positional_Scan_130, GlyR β 414-428 variant F420D]
In: Compare reported gephE Binding Intensity [norm.] values for I and II . Which is lower? Write the label of whichever entry you select.
Out: II
(II: 0.45 norm., I: 0.79 norm.)

---

Property: Ki; scope: individual compounds
Target: gephE (Rattus norvegicus)
Construct: gephE (residues 318-736) was generated
Sequence (Q03555 350-768): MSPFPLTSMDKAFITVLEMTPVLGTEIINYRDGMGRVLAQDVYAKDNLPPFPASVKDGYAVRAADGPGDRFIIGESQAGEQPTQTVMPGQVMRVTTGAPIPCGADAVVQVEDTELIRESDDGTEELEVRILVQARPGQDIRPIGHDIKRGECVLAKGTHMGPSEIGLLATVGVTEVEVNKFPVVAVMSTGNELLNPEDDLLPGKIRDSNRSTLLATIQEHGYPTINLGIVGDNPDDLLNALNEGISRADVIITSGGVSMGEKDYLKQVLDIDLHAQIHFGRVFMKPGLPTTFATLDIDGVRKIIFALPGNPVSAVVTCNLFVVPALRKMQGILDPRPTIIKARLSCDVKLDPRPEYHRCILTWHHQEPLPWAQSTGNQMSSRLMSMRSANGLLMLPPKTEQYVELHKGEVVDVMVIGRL
Test: TRIC displacement 12-point dose response against gephE-NN1D-Alexa647 complex
Where a SMILES comes first, the peptide text is derived from it.
Give just the numeric value; µM need not be written.

Example compounds with recorded Ki:
>>> result_value("CC[C@H](C)[C@H](NC(=O)[C@H](CO)NC(=O)[C@H](Cc1c[nH]c2ccccc12)NC(=O)[C@H](CC(=O)O)NC(=O)[C@H](CC(N)=O)NC(=O)[C@H](CO)NC(=O)[C@H](CCCNC(=N)N)NC(=O)[C@H](CC(C)C)NC(=O)[C@@H](N)CC(=O)O)C(=O)N[C@H](C(=O)NCC(=O)N[C@@H](CO)C(=O)N[C@@H](CC(C)C)C(=O)N1CCC[C@H]1C(=O)N[C@@H](CCCNC(=N)N)C(N)=O)C(C)C [GlyRβ_Full_Positional_Scan_128] (H-DLRSNDWSIVGSLPR-NH2)")
31.9
>>> result_value("CC[C@H](C)[C@H](NC(=O)[C@H](CO)NC(=O)[C@H](Cc1ccccc1)NC(=O)[C@H](CC(=O)O)NC(=O)[C@H](CC(N)=O)NC(=O)[C@H](CO)NC(=O)[C@H](CCCNC(=N)N)NC(=O)[C@H](CC(C)C)NC(=O)[C@@H](N)CC(=O)O)C(=O)N[C@H](C(=O)NCC(=O)N[C@@H](CO)C(=O)N[C@@H](CC(C)C)C(=O)N1CCC[C@H]1C(=O)N[C@@H](CCCNC(=N)N)C(N)=O)[C@@H](C)CC [GlyRβ_Full_Positional_Scan_183] (H-DLRSNDFSIIGSLPR-NH2)")
9.01

Would you kindly look at the next entry?
// field: Ki; key: CC[C@H](C)[C@H](NC(=O)CNC(=O)[C@H](Cc1ccccc1)NC(=O)[C@H](CC(=O)O)NC(=O)[C@H](CC(N)=O)NC(=O)[C@H](CO)NC(=O)[C@H](CCCNC(=N)N)NC(=O)[C@H](CC(C)C)NC(=O)[C@@H](N)CC(=O)O)C(=O)N[C@H](C(=O)NCC(=O)N[C@@H](CO)C(=O)N[C@@H](CC(C)C)C(=O)N1CCC[C@H]1C(=O)N[C@@H](CCCNC(=N)N)C(N)=O)C(C)C [GlyRβ_Full_Positional_Scan_142] (H-DLRSNDFGIVGSLPR-NH2) ; value = 42.4
